Values were extracted from patent US20220112288A1.

- Subject of test: T1, Rhesus macaque CD4-HIS (Acro Biosystems, Cat. CD4-C52H7) (rhesus macaque, UniProt P16003 26-390)
- T1 construct: Bought reagent; also called Rhesus CD4; rhesus CD4-HIS; not shown: His tag
- Method notes: BLI (Octet Red384); Ab on anti-mouse Fc (AMC) sensor; rhesus CD4-HIS 100/50/25 nM; global 1:1 fit;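 further: antibodies loaded at 10 µg/mL, an unrelated mouse-derived antibody served as internal reference, curves fit over association and dissociation phases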
Here the recorded koff is given for each entry.
Provide the reading as a plain figure in s⁻¹.

binder="75110_14I16A (antibody, V domains shown, Tested as antibody purified from AlivaMab Mouse hybridoma supernatant (human variable domains, kappa; mouse Fc, captured on anti-mouse IgG Fc sensors); also called ADS75110 purified AMM Ab) VH: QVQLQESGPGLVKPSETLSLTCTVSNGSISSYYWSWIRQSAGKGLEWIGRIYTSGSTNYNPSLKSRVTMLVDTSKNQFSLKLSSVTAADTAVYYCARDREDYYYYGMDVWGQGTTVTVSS VL: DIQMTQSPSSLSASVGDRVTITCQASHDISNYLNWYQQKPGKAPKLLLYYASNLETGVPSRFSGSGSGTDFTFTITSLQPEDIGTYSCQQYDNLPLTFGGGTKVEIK" measurement_unit=s⁻¹ recorded_value=0.0027
binder="75110_08F20A (antibody, V domains shown, Tested as antibody purified from AlivaMab Mouse hybridoma supernatant (human variable domains, kappa; mouse Fc, captured on anti-mouse IgG Fc sensors); also called ADS75110 purified AMM Ab) VH: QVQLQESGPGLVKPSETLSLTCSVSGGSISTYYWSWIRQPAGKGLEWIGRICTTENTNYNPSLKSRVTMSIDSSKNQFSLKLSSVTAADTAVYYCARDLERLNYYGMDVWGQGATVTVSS VL: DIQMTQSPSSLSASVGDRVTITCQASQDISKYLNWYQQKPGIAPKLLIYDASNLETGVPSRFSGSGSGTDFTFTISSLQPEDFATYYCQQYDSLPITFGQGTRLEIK" measurement_unit=s⁻¹ recorded_value=0.0026

Moving on to the next binder.
Quick check: koff of 75110_12K21A (antibody, V domains shown, Tested as antibody purified from AlivaMab Mouse hybridoma supernatant (human variable domains, kappa; mouse Fc, captured on anti-mouse IgG Fc sensors); also called ADS75110 purified AMM Ab) VH: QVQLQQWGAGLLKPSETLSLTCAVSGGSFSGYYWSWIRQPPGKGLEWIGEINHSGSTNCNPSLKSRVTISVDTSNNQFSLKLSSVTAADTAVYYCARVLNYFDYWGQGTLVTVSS VL: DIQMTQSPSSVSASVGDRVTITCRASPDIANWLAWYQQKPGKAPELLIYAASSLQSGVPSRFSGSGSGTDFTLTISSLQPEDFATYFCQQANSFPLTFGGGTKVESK ? 0.0056
